Where do the numbers come from? From ChEMBL document CHEMBL4513216.

Test details: Toxicity liver stage against HepG2, at 10uM
Format: cell-based
Parameters: test concentration 10 uM, cell line HepG2-A16-CD81EGFP
Assay setup: human, HepG2-A16-CD81EGFP cells; read-out: INHIBITION
Assay endpoint: cytotoxicity at 10 µM (%)
// note: answer is a bare numeric in %

> print(dat)
                                   compound  unit.info  reported.result
1  COCCN(C)C[C@@H]1CN(C(=O)C(C)(C)c2ccccc2)C[C@@H]1CO          %             16.7
2  Cc1n[nH]c(C)c1CCC(=O)N1CCC(O)(CN2CCN(C)CC2)C1 (centres undefined)          %            -6.13
3      Cc1ccc2c(C)c(C(=O)NCc3csc(N)n3)oc2c1          %            -2.83
4  CC1CN(C)CCN1C(=O)Nc1nc(-c2ccco2)cs1 (centres undefined)          %            -5.02
5    COc1ccc(S(=O)(=O)NC(=O)COC2CCCCC2)cc1C          %            -3.56
6  COc1ccc(CN2C[C@H]3CC[C@@H](C2)N(S(C)(=O)=O)C3)cc1          %            -5.75

For reference, reported cytotoxicity at 10 µM for `COCCN(CCOC)C(=O)c1cn(C(C)(C)C)c2ncccc12` stands at -1.14

For reference, reported cytotoxicity at 10 µM for `O=S(=O)(Cc1ccccc1)NCc1ccnc(O)c1` stands at -1.2

For reference, reported cytotoxicity at 10 µM for `CC1(C)CN(C(=O)CC2CCS(=O)(=O)CC2)C[C@]1(C)O` stands at 5.91
